- Study system: mutEGFR (D770_N771insSVD) (Homo sapiens, UniProt P00533, DUP768-770)
- Construct: GST-EGFR #3 (SVD between D770 and N771); made in house; host or cells: Sf9 insect cells (baculovirus)
- Sequence (P00533 with tags, fused parts or gaps DUP768-770): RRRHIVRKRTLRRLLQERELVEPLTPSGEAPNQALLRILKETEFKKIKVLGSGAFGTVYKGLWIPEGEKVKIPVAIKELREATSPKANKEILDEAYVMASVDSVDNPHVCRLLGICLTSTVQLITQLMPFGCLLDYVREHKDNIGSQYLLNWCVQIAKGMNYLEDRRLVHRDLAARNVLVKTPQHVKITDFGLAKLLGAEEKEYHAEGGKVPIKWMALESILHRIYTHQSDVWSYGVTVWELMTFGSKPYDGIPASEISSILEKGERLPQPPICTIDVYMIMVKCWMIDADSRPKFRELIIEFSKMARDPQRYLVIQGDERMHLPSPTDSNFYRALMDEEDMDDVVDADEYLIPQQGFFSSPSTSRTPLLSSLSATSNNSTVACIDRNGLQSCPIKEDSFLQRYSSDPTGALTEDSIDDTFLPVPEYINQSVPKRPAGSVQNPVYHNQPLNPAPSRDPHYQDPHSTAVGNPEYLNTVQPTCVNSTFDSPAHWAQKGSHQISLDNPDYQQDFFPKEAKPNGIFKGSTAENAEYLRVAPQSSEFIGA
- Assay details: Exon20-Mutant-EGFR (D770_N771insSVD) kinase assay (TR-FRET)
- Assay type: biochemical
- Test context: mutEGFR (D770_N771insSVD) kinase assay IC50, Table 2a; D770_N771insSVD; 2 mM ATP
Threshold 10 nM: IC50 strictly smaller gives 1 (yes), otherwise 0 (no).

Problem: Strictly below 10 nM: is that where IC50 of "Cc1c[nH]c2nccc(-c3c(-c4ccc(C(F)(F)F)cc4)nn4c3CN(C(=O)/C=C/CN(C)C)[C@@H](C)C4)c12" sits?
Result: 0 (no)

Problem: Same question, "CN(C)C/C=C/C(=O)N1CCn2nc(-c3ccc4nn[nH]c4c3)c(-c3ccncc3)c2C1" this time
Result: 0 (no)

Problem: Same question, "C=CC(=O)N1CCn2nc(-c3ccc(Cl)c(Cl)c3)c(-c3ccncc3)c2C1" this time
Result: 1 (yes)

Problem: Same question, C=CC(=O)N1Cc2c(-c3ccncc3)c(-c3ccc(OC)cc3)nn2C(C)C1 (single isomer, unassigned; isomer 2) [Example 275] this time
Result: 1 (yes)

Problem: Same question, "Cc1c[nH]c2nccc(-c3c(-c4cccc5ccoc45)nn4c3CN(C(=O)/C=C/CN(C)C)CC4)c12" this time
Result: 0 (no)

Problem: Same question, O=C(Nc1cc(-c2c(-c3ccc(F)cc3)nn3c2CN(C(=O)C2CO2)CC3)ccn1)C1CC1 (stereo not drawn) this time
Result: 0 (no)

Problem: Same question, C=CC(=O)N1CCn2nc(-c3ccc(C(F)(F)F)cc3)c(-c3ccnc4[nH]ccc34)c2C1C (single isomer, unassigned; isomer 2) [Example 247] this time
Result: 1 (yes)

Problem: Same question, CC(C)(C)OC(=O)N1CCCC1C#CC(=O)N1CCn2nc(-c3ccc(F)cc3)c(-c3ccncc3)c2C1 (racemic) this time
Result: 0 (no)

Problem: Same question, C=CC(=O)N1Cc2c(-c3ccncc3)c(-c3ccc(OC)cc3)nn2C(C)C1 (single isomer, unassigned; isomer 1) [Example 274] this time
Result: 1 (yes)

Problem: Same question, "C=CC(=O)N1CCn2nc(-c3cc(Cl)ccc3F)c(-c3ccnc4[nH]cc(C)c34)c2C1" this time
Result: 0 (no)

Problem: Same question, C=CC(=O)N1Cc2c(-c3ccncc3)c(-c3ccc(C(F)(F)F)cc3F)nn2CC1C (racemic) this time
Result: 1 (yes)

Problem: Same question, "CN(C)C/C=C/C(=O)N1CCn2nc(-c3ccc(F)cc3)c(-c3ccnc4[nH]ccc34)c2C1" this time
Result: 0 (no)

Problem: Same question, "C=CC(=O)N1CCn2nc(-c3ccc(OC(F)(F)F)cc3)c(-c3ccncc3)c2C1" this time
Result: 1 (yes)

Problem: Same question, "C=CC(=O)N1CCn2nc(-c3ccc(C(F)(F)F)cc3)c(-c3ccncc3)c2C1" this time
Result: 1 (yes)

Problem: Same question, "Cc1c[nH]c2nccc(-c3c(-c4ccc(Cl)cc4)nn4c3CN(C(=O)/C=C/CN(C)C)CC4)c12" this time
Result: 0 (no)

###

- Study system: mutEGFR (D770_N771insNPG, T790) (Homo sapiens, UniProt P00533, INS770NPG/T790M)
- Construct: exact insNPG construct not described; in-house EGFR proteins were N-terminal GST fusions from baculovirus/insect cells (borders R669-A1210 given only for WT, insSVD, insASV)
- Sequence (P00533 with tags, fused parts or gaps INS770NPG/T790M limits assumed): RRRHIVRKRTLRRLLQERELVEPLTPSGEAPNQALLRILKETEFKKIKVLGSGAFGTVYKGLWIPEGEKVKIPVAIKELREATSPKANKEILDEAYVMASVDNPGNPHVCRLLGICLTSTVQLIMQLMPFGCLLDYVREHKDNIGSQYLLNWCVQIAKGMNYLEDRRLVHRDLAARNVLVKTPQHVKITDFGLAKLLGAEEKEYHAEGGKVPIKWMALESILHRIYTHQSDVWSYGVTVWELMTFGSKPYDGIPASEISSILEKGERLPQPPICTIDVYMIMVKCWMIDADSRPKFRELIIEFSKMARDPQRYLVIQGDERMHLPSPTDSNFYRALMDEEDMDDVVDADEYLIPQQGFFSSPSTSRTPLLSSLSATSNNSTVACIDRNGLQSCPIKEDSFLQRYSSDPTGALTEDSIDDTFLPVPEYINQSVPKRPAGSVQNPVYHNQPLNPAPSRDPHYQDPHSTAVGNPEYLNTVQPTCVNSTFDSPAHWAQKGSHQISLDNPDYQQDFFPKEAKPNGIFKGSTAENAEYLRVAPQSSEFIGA
- Assay details: mutEGFR (D770_N771insNPG, T790) kinase assay
- Assay type: biochemical
- Test context: Table 2a, D770_N771insNPG
- Excerpt: The different EGFR proteins used in the biochemical kinase activity inhibition assays were generated inhouse by expression in insect cells using Baculo Virus system and subsequent purification as described in the following paragraphs. The cDNAs encoding the various protein sequences from human EGFR human (P00533) were optimized for expression in eukaryotic cells and synthesized by the GeneArt Technology at Life Technologies.
Threshold 10 nM: IC50 strictly smaller gives y, otherwise n.

Problem: Strictly below 10 nM: is that where IC50 of C=CC(=O)N1CCn2nc(-c3ccc(Cl)cc3F)c(-c3ccnc4[nH]cc(F)c34)c2C1 [Example 52] sits?
Result: n

Problem: Same question, CN(C)C/C=C/C(=O)N1Cc2c(-c3ccncc3)c(-c3ccc(F)cc3)nn2C(CO)C1 (racemic) [Example 201] this time
Result: y

Problem: Same question, C=CC(=O)N1CCn2nc(-c3ccc(Cl)cc3Cl)c(-c3ccncc3)c2C1 [Example 115] this time
Result: y

Problem: Same question, C=CC(=O)N1CCn2nc(-c3ccc(Cl)cc3)c(-c3ccnc4[nH]cc(C)c34)c2C1 [Example 175] this time
Result: n

Problem: Same question, C=CC(=O)N1CCn2nc(-c3cccc(OC)c3)c(-c3ccncc3)c2C1 [Example 5] this time
Result: y

Problem: Same question, C=CC(=O)N1CCn2nc(-c3ccc(C(F)(F)F)nc3)c(-c3ccncc3)c2C1 [Example 188] this time
Result: n

Problem: Same question, C=CC(=O)N1CCn2nc(-c3ccc(F)cc3)c(-c3ccnc4[nH]cc(C)c34)c2C1C (single isomer, unassigned; isomer 1) [Example 262] this time
Result: n

Problem: Same question, C=CC(=O)N1Cc2c(-c3ccnc4[nH]cc(C)c34)c(-c3ccc(F)cc3)nn2C[C@H]1C [Example 263] this time
Result: n
